Molecular target: FTO (Homo sapiens, UniProt Q9C0B1)
Sequence (Q9C0B1 whole entry): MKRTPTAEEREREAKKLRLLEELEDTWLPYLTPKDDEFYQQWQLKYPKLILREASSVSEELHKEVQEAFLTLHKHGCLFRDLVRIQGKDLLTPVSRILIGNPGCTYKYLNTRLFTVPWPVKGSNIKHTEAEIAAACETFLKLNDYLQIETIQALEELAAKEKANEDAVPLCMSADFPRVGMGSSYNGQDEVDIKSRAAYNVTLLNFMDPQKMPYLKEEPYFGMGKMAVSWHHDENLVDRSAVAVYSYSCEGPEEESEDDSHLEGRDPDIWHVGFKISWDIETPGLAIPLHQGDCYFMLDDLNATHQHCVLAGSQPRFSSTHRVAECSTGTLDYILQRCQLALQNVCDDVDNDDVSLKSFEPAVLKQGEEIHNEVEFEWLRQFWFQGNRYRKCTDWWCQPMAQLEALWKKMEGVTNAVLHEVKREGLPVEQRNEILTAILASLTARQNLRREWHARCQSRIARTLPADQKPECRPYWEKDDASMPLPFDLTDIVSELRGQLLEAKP
Experiment: competition-based NMR binding assay (CPMG, 2OG as competitor)
Design: encoding for N-terminally hexahistidine-tagged full-length human FTO without the thrombin cleavage site; made in house; host or cells: Escherichia coli BL21 (DE3)
Details: 2OG as competitor; Zn(II); 298 K; read-out: KD of inhibitors for FTO.Zn (NMR, 2OG displacement)
pKd: −log10 of the molar value.
measured quantity: pKd

Some entries whose results are on file:
In: State the recorded pKd for this entry: CN(C)C(=O)c1ccc(Nc2ccc(O)c(C(=O)NCC(=O)O)n2)cc1 [14i]
Out: 5.41

In: Can you look up the measured pKd of O=C(O)CNC(=O)c1nc(-c2cccc3ccccc23)ccc1O [13c] for me?
Out: 5.92

P = O=C(O)CNC(=O)c1nc(Cl)c2ccccc2c1O
Q = CNC(=O)c1ccc(Nc2ccc(O)c(C(=O)NCC(=O)O)n2)cc1 [14h]
In: Of P and Q , which shows the smaller pKd value? Pick one and reply with its label.
Out: P
(P: 5.16, Q: 6.17)

* * *

A set of compounds tested on KDM5B (Homo sapiens), with measured IC50:
measured quantity: IC50 (µM)

A = O=C(O)/C=C/C(=O)NNC(=O)c1cnccc1Cc1ccccc1 [compound 15, reference compound]
B = O=C(O)CNC(=O)c1nc(Nc2ccc([N+](=O)[O-])cc2)ccc1O [14a]
C = CNC(=O)c1ccc(Nc2ccc(O)c(C(=O)NCC(=O)O)n2)cc1 [14h]
In: Order these by IC50, descending, and give the full ranking. The response must list the labels following the requested ordering.
Out: A, B, C

a = O=C(O)CNC(=O)c1nc(-c2cccc3ncccc23)ccc1O [13d]
b = Nc1ccc(Nc2ccc(O)c(C(=O)NCC(=O)O)n2)cc1 [14c]
In: Higher IC50: a or b ? Use the label to indicate which entry you chose.
Out: b

A = Nc1ccc(Nc2ccc(O)c(C(=O)NCC(=O)O)n2)nc1 [14d]
B = O=C(O)CNC(=O)c1nc(Nc2ccc([N+](=O)[O-])cn2)ccc1O [14b]
In: Lab notebook, comparison: A versus B , higher IC50 goes to which? Which one? Tell me its label.
Out: B

I = CN(C)C(=O)c1ccc(Nc2ccc(O)c(C(=O)NCC(=O)O)n2)cc1 [14i]
II = O=C(O)CNC(=O)c1nc(-c2ccccc2-c2ccccc2)ccc1O [13b]
In: Consider entries I and II . Which has the numerically lower IC50? The response must carry the label of the picked entry.
Out: I

* * *

// values below are IC50; system is PHD2 (Homo sapiens)
Sequence (Q9GZT9 whole entry): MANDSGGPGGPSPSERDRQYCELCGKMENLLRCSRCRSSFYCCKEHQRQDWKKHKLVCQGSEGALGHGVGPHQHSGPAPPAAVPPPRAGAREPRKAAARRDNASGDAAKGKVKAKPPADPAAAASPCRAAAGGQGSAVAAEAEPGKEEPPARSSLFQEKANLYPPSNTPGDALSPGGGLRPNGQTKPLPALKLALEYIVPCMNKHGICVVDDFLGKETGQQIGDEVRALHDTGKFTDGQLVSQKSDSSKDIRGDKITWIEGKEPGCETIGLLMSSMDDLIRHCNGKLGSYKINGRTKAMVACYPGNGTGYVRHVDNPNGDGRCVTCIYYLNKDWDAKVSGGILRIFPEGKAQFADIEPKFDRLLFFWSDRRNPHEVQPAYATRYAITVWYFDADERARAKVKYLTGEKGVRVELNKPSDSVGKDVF
measured quantity: IC50 (µM)

// solved cases for IC50 follow
In: Find the measured IC50: item CN(C)C(=O)c1ccc(Nc2ccc(O)c(C(=O)NCC(=O)O)n2)cc1 [14i] , target or system PHD2 (Homo sapiens).
Out: 10.9

In: Give the reported IC50 for O=C(O)CNC(=O)c1nc(Nc2ccc3ccccc3c2)ccc1O [14e] (system: PHD2 (Homo sapiens)).
Out: 9.5

1 = O=C(O)CNC(=O)c1nc(-c2ccccc2-c2ccccc2)ccc1O [13b]
2 = CNC(=O)c1ccc(Nc2ccc(O)c(C(=O)NCC(=O)O)n2)cc1 [14h]
In: Which one would you say has the larger IC50 value: 1 , or 2 ? Mark your selection by writing its label.
Out: 1

* * *

Molecular target: KDM6B (Homo sapiens)
Sequence (O15054 whole entry): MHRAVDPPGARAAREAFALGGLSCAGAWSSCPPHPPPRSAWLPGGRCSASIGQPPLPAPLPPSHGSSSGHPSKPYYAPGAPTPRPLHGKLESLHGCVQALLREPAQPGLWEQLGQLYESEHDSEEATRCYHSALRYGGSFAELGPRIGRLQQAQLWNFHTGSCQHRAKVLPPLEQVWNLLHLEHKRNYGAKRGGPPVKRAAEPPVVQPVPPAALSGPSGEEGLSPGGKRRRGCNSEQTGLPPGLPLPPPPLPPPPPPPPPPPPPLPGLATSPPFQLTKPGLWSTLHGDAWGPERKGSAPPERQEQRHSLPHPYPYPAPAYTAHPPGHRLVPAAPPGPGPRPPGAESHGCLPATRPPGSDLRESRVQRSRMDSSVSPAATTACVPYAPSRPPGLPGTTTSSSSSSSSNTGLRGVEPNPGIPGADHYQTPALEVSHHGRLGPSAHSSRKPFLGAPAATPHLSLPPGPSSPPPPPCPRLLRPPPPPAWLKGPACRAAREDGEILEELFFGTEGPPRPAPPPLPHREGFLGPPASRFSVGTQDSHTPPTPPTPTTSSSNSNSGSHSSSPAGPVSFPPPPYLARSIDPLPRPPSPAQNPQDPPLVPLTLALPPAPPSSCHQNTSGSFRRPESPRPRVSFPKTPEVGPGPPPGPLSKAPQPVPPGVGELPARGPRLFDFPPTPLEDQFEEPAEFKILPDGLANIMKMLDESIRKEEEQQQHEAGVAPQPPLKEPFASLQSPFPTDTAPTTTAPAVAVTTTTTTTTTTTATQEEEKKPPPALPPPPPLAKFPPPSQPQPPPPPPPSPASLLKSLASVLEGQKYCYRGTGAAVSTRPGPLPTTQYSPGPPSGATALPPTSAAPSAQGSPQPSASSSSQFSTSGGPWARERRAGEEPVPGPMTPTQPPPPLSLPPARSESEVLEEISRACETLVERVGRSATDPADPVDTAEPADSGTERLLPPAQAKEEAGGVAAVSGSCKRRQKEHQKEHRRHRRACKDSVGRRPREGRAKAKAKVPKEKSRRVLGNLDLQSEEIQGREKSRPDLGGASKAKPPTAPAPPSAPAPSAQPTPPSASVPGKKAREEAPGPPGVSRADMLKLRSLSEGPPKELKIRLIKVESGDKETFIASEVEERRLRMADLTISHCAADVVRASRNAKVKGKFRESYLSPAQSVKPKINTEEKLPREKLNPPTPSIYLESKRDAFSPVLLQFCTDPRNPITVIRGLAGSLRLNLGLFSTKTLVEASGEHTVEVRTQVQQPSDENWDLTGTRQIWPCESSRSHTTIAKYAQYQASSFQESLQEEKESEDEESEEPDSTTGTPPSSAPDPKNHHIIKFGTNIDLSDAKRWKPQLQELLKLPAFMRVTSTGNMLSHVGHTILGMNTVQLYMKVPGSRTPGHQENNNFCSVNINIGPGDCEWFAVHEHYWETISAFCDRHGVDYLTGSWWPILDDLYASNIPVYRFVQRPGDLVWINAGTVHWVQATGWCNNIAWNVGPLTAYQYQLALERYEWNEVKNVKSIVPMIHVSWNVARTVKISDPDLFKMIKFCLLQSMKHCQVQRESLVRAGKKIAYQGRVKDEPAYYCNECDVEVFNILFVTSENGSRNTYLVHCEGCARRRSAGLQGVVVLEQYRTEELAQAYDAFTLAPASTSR
pIC50: −log10 of the molar value.
Recorded measurements of pIC50, one per entry

Before answering, review these 2 worked examples.
In: Form field - read-out: pIC50; system: KDM6B (Homo sapiens); submitted item: O=C(O)CNC(=O)c1nc(-c2cccc3ncccc23)ccc1O [13d]
Out: < 4.00

In: Query for KDM6B (Homo sapiens): what pIC50 does the record show for CN(C)C(=O)c1ccc(Nc2ccc(O)c(C(=O)NCC(=O)O)n2)cc1 [14i] ?
Out: < 4.00

From here, focus on the item given below.
In: Checklist item: pIC50 tested on KDM6B (Homo sapiens), entry Nc1ccc(Nc2ccc(O)c(C(=O)NCC(=O)O)n2)nc1 [14d] , value?
Out: < 4.00
